molecular target: T1, cyno pro-myostatin (cynomolgus monkey, Biotinylated for capture in the SPR assay (site not stated). The native form is a disulfide-linked homodimer, partly furin-cleaved; one chain is given.); test: SPR Biacore 8K, biotin-antigen captured
T1 construct: also called proGDF8 (cynomolgus); cynomolgus monkey pro-myostatin
Overview of reported kon across a group of binders:
valueType: kon (M⁻¹ s⁻¹)

binder="Ab108 (antibody, human IgG4 S228P, kappa, V domains shown) VH: EVQLVESGGGLVQPGGSLRLSCAASGSAFSSYGMSWVRQAPGKGLELVASINSNGGSTYYPDSVKGRFTISRDNAKNSLYLQMNSLRAEDTAVYYCARDLLVGFLQWSHYYGMDVWGQGTTVTVSS VL: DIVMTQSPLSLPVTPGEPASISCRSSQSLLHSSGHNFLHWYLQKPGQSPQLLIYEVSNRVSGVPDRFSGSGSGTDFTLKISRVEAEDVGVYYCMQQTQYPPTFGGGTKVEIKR" valueunit="M⁻¹ s⁻¹" recordedvalue=6.39e+06
binder="Ab121 (antibody, human IgG4 S228P, kappa, V domains shown) VH: QVTLRESGPALVKPTQTLTLTCTVSGFSFSTSGMVVNWIRQPPGKALEWLAMIDWDADNIVYNSALKSRLTISKDTSKNQVVLTMTNMDPVDTATYYCAKDTGSGWFDAFDIWGQGTMVTVSS VL: DIVMTQSPDSLAVSLGERATINCKSSQSVLYSSTNQNFLAWYQQKPGQPPKLLIYQASTLQNGVPDRFSGSGSGTDFTLTISSLQAEDVAVYYCQQYLTTPYTFGGGTKVEIKR" valueunit="M⁻¹ s⁻¹" recordedvalue=3.45e+06
binder="Ab129 (antibody, human IgG4 S228P, kappa, V domains shown) VH: QVQLVQSGAEVKKPGASVKVSCKVSGFNYPRSAIHWVRQAPGKGLEWMGGINPSGEATIYAQKFQGRVTMTEDTSTDTAYMELSSLKSEDTAVYYCARDSSPQWLVTAGVYFYGMDVWGQGTTVTVSS VL: DIQMTQSPSSVSASVGDRVTITCRASQSISNWLAWYQQKPGKAPKLLIYHASTLQSGVPSRFSGSGSGTDFTLTISSLQPEDFANYYCQQYSSTPWTFGGGTKVEIKR" valueunit="M⁻¹ s⁻¹" recordedvalue=411000
